Published IC50 for Poly [ADP-ribose] polymerase tankyrase-2 (Homo sapiens, UniProt Q9H2K2), assembled from different documents, is shown next.
The label condition met is reserved for IC50 strictly under 50 nM; condition not met covers values equal to or above it.

As a guide, the following entries are already answered.
>>> df
                           smiles_structure         class_name
0  O=c1[nH]c(-c2ccc(-c3ccc(B(O)O)c(O)c3)cc2)nc2c1CSCC2      condition met
1  COC[C@H](C)NC(=O)c1nc[nH]c1C(=O)N[C@H]1CC[C@H](C(=O)Nc2c(F)cc(F)cc2Cl)CC1  condition not met
2  Cn1ncc2c(=O)[nH]c(N3CCN(c4ccc(F)cc4F)CC3)cc21      condition met
3  Cn1ncc2c(=O)[nH]c(N3CCN(c4ccccc4F)CC3)nc21      condition met
4  O=C(N[C@H]1CC[C@@]2(CCN(c3ccccc3Cl)C2=O)CC1)c1[nH]cnc1C(=O)N1CC2(COC2)C1      condition met
5  CNC(=O)c1nc[nH]c1C(=O)N[C@H]1CC[C@H](C(=O)Nc2ccncc2Cl)CC1  condition not met
6  O=c1[nH]c(N2CCC(c3ccc(F)cc3)CC2)nc2[nH]ncc12  condition not met

Consider the additional molecule presented here.
Challenge: Say whether its IC50 is strictly beneath 50 nM. Entry: Cn1ccc2c(=O)[nH]c(N3CCN(c4ccc(C#N)cn4)CC3)nc21
Response given: condition not met
